Hey, just so you know, these numbers are from patent US20220387403A1.

Listed next: entries and their corresponding HDL-C.
System: hyperlipidemic rabbits
Assay: Lipid lowering effects and blood chemistry in hyperlipidemic rabbits
Conditions: after 14 days of drug treatment, mean, n = 6
assay-endpoint: HDL-C (mmol/L)

[[record]]
compound = "CC(C)c1c(C(=O)Nc2ccccc2)c(-c2ccccc2)c(-c2ccc(F)cc2)n1CC[C@@H](O)C[C@@H](O)CC(=O)O [ATV, atorvastatin, reference compound]"
unit_tag = "mmol/L"
reported_result = 3.6

[[record]]
compound = "CCC(C)(C)C(=O)O[C@H]1C[C@@H](C)C=C2C=C[C@H](C)[C@H](CC[C@@H]3C[C@@H](O)CC(=O)O3)[C@H]21 [SMV, simvastatin, reference compound]"
unit_tag = "mmol/L"
reported_result = 2.9

[[record]]
compound = "COc1ccc2c(c1)CCN1Cc3c(ccc(OC)c3OS(=O)(=O)c3cccc(F)c3)CC21 (stereo not drawn) [128(−)]"
unit_tag = "mmol/L"
reported_result = 3.5

[[record]]
compound = "COc1ccc2c(c1)CCN1Cc3c(ccc(OC)c3OS(=O)(=O)c3cccc(F)c3)CC21 (stereo not drawn) [128(+)]"
unit_tag = "mmol/L"
reported_result = 3.6


---

System: hyperlipidemic rabbits
Experiment: Lipid lowering effects and blood chemistry in hyperlipidemic rabbits
Settings: treatment day 4; 128(+)/128(−) 30 mg/kg, SMV/ATV 3 mg/kg once a day oral gavage; in mM
assay-endpoint: serum total cholesterol level

[[record]]
compound = "COc1ccc2c(c1)CCN1Cc3c(ccc(OC)c3OS(=O)(=O)c3cccc(F)c3)CC21 (stereo not drawn) [128(−)]"
reported_result = 29.9

[[record]]
compound = "CCC(C)(C)C(=O)O[C@H]1C[C@@H](C)C=C2C=C[C@H](C)[C@H](CC[C@@H]3C[C@@H](O)CC(=O)O3)[C@H]21 [SMV, simvastatin, reference compound]"
reported_result = 24.8

[[record]]
compound = "COc1ccc2c(c1)CCN1Cc3c(ccc(OC)c3OS(=O)(=O)c3cccc(F)c3)CC21 (stereo not drawn) [128(+)]"
reported_result = 31.9

[[record]]
compound = "CC(C)c1c(C(=O)Nc2ccccc2)c(-c2ccccc2)c(-c2ccc(F)cc2)n1CC[C@@H](O)C[C@@H](O)CC(=O)O [ATV, atorvastatin, reference compound]"
reported_result = 26.5


---

Tested on: hyperlipidemic rabbits
Test: Lipid lowering effects and blood chemistry in hyperlipidemic rabbits
Conditions: after 14 days of drug treatment, mean, n = 6
assay-endpoint: TG (mmol/L)

[[record]]
compound = "COc1ccc2c(c1)CCN1Cc3c(ccc(OC)c3OS(=O)(=O)c3cccc(F)c3)CC21 (stereo not drawn) [128(−)]"
reported_result = 0.9

[[record]]
compound = "CCC(C)(C)C(=O)O[C@H]1C[C@@H](C)C=C2C=C[C@H](C)[C@H](CC[C@@H]3C[C@@H](O)CC(=O)O3)[C@H]21 [SMV, simvastatin, reference compound]"
reported_result = 1.7

[[record]]
compound = "CC(C)c1c(C(=O)Nc2ccccc2)c(-c2ccccc2)c(-c2ccc(F)cc2)n1CC[C@@H](O)C[C@@H](O)CC(=O)O [ATV, atorvastatin, reference compound]"
reported_result = 1.7

[[record]]
compound = "COc1ccc2c(c1)CCN1Cc3c(ccc(OC)c3OS(=O)(=O)c3cccc(F)c3)CC21 (stereo not drawn) [128(+)]"
reported_result = 1.0

